As shown below, each of these compounds has a reported pIC50 value.
- system tested: UniProtKB Q70CQ3
- experimental details: USP30 biochemical IC50 assay (fluorescence polarisation)
- condition description: USP30 biochemical IC50 assay; read-out: IC50
The value called pIC50 is obtained by taking minus log10 of the concentration in mol/L.

smiles data	pIC50
COC[C@@H]1C[C@@H](NC(=O)c2ncc(-c3cc(C#N)ccc3OC)o2)CN1C#N	8.52
COC[C@@H]1C[C@@H](NC(=O)c2nc(-c3cc(C#N)ccc3OC3CC3)co2)CN1C#N	8.40
COc1cc(F)c(C#N)cc1-c1cnc(C(=O)N[C@@H]2C[C@@H](C)N(C#N)C2)o1	8.70
COC[C@@H]1C[C@@H](NC(=O)c2nc(-c3cc(C#N)ccc3OC)co2)CN1C#N	8.70
COC[C@H]1C[C@@H](NC(=O)c2nc(-c3cc(C#N)ccc3OC3CC3)co2)CN1C#N	7.17

In plain terms, C[C@@H]1C[C@@H](NC(=O)c2ncc(-c3cc(C#N)ccc3OC(F)(F)F)o2)CN1C#N has a documented pIC50 of 8.40

In plain terms, COC[C@@H]1C[C@@H](NC(=O)c2ncc(-c3cc(C#N)ccc3OC(F)(F)F)o2)CN1C#N has a documented pIC50 of 8.52

In plain terms, COC[C@H]1C[C@@H](NC(=O)c2ncc(-c3cc(C#N)ccc3OC3CC3)o2)CN1C#N has a documented pIC50 of 8.00

###

As shown below, each of these compounds has a reported Kp uu value.
- experimental details: PK mouse 2 mg/kg iv
- Assay type: in vivo
- condition description: brain and plasma (unbound); 2 mg/kg IV dose - mouse
Kindly provide the number alone.

smiles data	endpoint result
COC[C@@H]1C[C@@H](NC(=O)c2ncc(-c3cc(C#N)ccc3OC3CC3)o2)CN1C#N	0.01

Could you now look at the following compound, please?
In plain terms, C[C@@H]1C[C@@H](NC(=O)c2ncc(-c3cc(C#N)ccc3OC3CC3)o2)CN1C#N has a documented Kp uu of 0.02

###

As shown below, each of these compounds has a reported clearance value.
- experimental details: PK mouse 2 mg/kg iv
- Assay type: in vivo
- condition description: plasma; mouse, 2 mg/kg iv; read-out: Cl plasma
Number only, in mL/min/kg; omit the unit.

compound	unit spec	clearance
COC[C@@H]1C[C@@H](NC(=O)c2ncc(-c3cc(C#N)ccc3OC3CC3)o2)CN1C#N [Example 2]	mL/min/kg	20

Could you now look at the following compound, please?
In plain terms, C[C@@H]1C[C@@H](NC(=O)c2ncc(-c3cc(C#N)ccc3OC3CC3)o2)CN1C#N [Example 1] has a documented clearance of 41

###

- experimental details: Mouse plasma stability
- Format: in vitro ADME
- condition description: read-out: Stability Mouse plasma t½
As shown below, each of these compounds has a reported half-life value.

smiles data	endpoint result
COC[C@@H]1C[C@@H](NC(=O)c2ncc(-c3cc(C#N)ccc3OC3CC3)o2)CN1C#N	> 2 h

Could you now look at the following compound, please?
In plain terms, C[C@@H]1C[C@@H](NC(=O)c2ncc(-c3cc(C#N)ccc3OC3CC3)o2)CN1C#N has a documented half-life of > 2 h

###

// UniProtKB P07711 IC50 records
Sequence (P07711 114-333, species assumed): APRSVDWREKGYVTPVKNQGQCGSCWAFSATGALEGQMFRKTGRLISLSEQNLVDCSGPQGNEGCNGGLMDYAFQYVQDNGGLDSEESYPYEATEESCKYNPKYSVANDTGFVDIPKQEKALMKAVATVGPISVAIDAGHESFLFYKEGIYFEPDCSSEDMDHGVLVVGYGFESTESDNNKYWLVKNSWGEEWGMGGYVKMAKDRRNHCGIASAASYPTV
Number only, in µM; omit the unit.

compound	system tested	parameter	unit spec	endpoint result
C[C@@H]1C[C@@H](NC(=O)c2ncc(-c3cc(C#N)ccc3OC3CC3)o2)CN1C#N	UniProtKB P07711	IC50	µM	9.9
COC[C@@H]1C[C@@H](NC(=O)c2ncc(-c3cc(C#N)ccc3OC3CC3)o2)CN1C#N	UniProtKB P07711	IC50	µM	23.6

Could you now look at the following compound, please?
Noted IC50 for COc1cccc(-c2cc(C(=O)N[C@@H]3CCN(C#N)C3)on2)c1 [Reference Example A, reference compound] , tested on UniProtKB P07711: 2.9

###

- experimental details: WT-MDCK in vitro flux
- Assay type: in vitro ADME
- condition description: dog
parameter: efflux ratio
Kindly provide the number alone.

In plain terms, COC[C@@H]1C[C@@H](NC(=O)c2ncc(-c3cc(C#N)ccc3OC3CC3)o2)CN1C#N [Example 2] has a documented efflux ratio of 0.7

###

As shown below, each of these compounds has a reported fraction unbound value.
- experimental details: Plasma free fraction by equilibrium dialysis
- Type: in vitro ADME
- condition description: mouse plasma; read-out: Binding Mouse Plasma fu,p
Kindly provide the number alone.

smiles data	fraction unbound
COC[C@@H]1C[C@@H](NC(=O)c2ncc(-c3cc(C#N)ccc3OC3CC3)o2)CN1C#N	0.07

In plain terms, C[C@@H]1C[C@@H](NC(=O)c2ncc(-c3cc(C#N)ccc3OC3CC3)o2)CN1C#N has a documented fraction unbound of 0.09

###

// Cathepsin S (Homo sapiens (Human)) IC50 records
Number only, in µM; omit the unit.

smiles data	system tested	parameter	unit spec	endpoint result
COC[C@@H]1C[C@@H](NC(=O)c2ncc(-c3cc(C#N)ccc3OC3CC3)o2)CN1C#N	Cathepsin S (Homo sapiens (Human))	IC50	µM	91.2
COC[C@@H]1C[C@@H](NC(=O)c2nc(-c3cc(C#N)ccc3OC)co2)CN1C#N	Cathepsin S (Homo sapiens (Human))	IC50	µM	64.8

Could you now look at the following molecule, please?
Noted IC50 for C[C@@H]1C[C@@H](NC(=O)c2ncc(-c3cc(C#N)ccc3OC3CC3)o2)CN1C#N , tested on Cathepsin S (Homo sapiens (Human)): 54.4

###

As shown below, each of these compounds has a reported DUB selectivity preference for USP30 v UCHL1 value.
- system tested: UCHL1 (Homo sapiens (Human), UniProt P09936)
- Sequence (P09936 whole entry, species assumed): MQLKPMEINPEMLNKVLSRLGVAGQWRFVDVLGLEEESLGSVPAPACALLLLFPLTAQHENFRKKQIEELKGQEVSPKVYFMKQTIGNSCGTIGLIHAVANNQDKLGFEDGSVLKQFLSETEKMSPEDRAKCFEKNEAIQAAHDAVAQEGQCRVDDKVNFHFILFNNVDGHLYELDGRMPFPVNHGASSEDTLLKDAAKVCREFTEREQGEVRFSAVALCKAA
- experimental details: UCHL1 DUB IC50
- Type: biochemical
- condition description: fold
Kindly provide the number alone.

Past entries and their recorded results:
compound	endpoint result
CC1CC(C(=O)Nc2ncc(-c3ccccc3)s2)CN1C#N (centres unmarked) [Reference Example E, reference compound]	1.5
N#Cc1ccc(-c2cnc(NC(=O)[C@H]3CCN(C#N)C3)s2)cc1OC(F)(F)F [B, reference compound]	3.0
COc1cc(-c2cnc(NC(=O)[C@H]3CCN(C#N)C3)s2)ccc1C#N [C, reference compound]	1.3

In plain terms, N#CN1CC[C@H](C(=O)Nc2ncc(-c3ccccc3)s2)C1 [D, reference compound] has a documented DUB selectivity preference for USP30 v UCHL1 of 0.8

###

- system tested: USP30 (Homo sapiens (Human))
- Sequence (Q70CQ3 57-517): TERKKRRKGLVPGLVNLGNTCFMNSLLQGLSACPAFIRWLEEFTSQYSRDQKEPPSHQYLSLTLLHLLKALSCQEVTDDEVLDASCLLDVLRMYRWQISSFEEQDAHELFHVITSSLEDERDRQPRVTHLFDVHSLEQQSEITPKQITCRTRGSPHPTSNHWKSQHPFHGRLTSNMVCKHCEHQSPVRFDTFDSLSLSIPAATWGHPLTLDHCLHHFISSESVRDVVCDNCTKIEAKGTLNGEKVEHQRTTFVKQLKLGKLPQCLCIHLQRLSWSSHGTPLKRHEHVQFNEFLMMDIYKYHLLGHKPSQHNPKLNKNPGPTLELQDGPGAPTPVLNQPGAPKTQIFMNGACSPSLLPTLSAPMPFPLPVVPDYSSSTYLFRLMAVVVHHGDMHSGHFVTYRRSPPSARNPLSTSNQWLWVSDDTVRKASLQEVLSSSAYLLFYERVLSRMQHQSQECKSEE
- experimental details: USP30 biochemical IC50 assay (fluorescence polarisation)
- condition description: read-out: DUB IC50 USP30
parameter: IC50 (nM)
Number only, in nM; omit the unit.

Past entries and their recorded results:
molecule	parameter	endpoint result
COc1cc(-c2cnc(NC(=O)[C@H]3CCN(C#N)C3)s2)ccc1C#N [C, reference compound]	IC50	160
COC[C@@H]1C[C@@H](NC(=O)c2nc(-c3cc(C#N)ccc3OC)co2)CN1C#N	IC50	2
COc1cccc(-c2cc(C(=O)N[C@@H]3CCN(C#N)C3)on2)c1 [Reference Example A, reference compound]	IC50	68

In plain terms, COC[C@@H]1C[C@@H](NC(=O)c2ncc(-c3cc(C#N)ccc3OC(F)(F)F)o2)CN1C#N has a documented IC50 of 3

###

- system tested: Cathepsin V (Homo sapiens (Human), UniProt O60911)
- Sequence (O60911 114-334, species assumed): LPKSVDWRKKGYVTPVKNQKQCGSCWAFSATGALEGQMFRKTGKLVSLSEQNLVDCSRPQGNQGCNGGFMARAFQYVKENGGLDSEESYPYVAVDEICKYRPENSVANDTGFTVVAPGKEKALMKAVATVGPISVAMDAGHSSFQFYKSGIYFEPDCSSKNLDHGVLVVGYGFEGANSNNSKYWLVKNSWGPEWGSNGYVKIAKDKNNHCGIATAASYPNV
As shown below, each of these molecules has a reported IC50 value.
Number only, in µM; omit the unit.

molecule	IC50 (µM)
COC[C@@H]1C[C@@H](NC(=O)c2ncc(-c3cc(C#N)ccc3OC3CC3)o2)CN1C#N [Example 2]	60.6

Could you now look at the following molecule, please?
In plain terms, COC[C@H]1C[C@@H](NC(=O)c2nc(-c3cc(C#N)ccc3OC3CC3)co2)CN1C#N [Example 12] has a documented IC50 of 190

###

- system tested: Endogenous USP30 (Homo sapiens (Human), UniProt Q70CQ3)
- Sequence (Q70CQ3 whole entry): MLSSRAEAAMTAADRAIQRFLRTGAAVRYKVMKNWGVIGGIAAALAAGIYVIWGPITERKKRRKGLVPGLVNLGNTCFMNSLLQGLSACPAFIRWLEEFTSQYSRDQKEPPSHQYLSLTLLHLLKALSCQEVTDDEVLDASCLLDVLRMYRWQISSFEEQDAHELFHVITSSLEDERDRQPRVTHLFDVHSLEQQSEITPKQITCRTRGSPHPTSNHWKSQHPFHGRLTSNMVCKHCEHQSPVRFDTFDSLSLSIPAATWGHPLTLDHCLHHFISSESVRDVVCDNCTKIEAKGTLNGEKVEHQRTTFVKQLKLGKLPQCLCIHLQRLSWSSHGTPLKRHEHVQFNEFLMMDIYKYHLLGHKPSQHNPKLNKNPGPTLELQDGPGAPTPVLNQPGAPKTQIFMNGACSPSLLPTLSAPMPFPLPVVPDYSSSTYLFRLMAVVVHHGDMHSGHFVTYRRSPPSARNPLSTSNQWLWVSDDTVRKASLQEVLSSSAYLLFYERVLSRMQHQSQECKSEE
- experimental details: USP30 endogenous cellular target engagement assay (Cell TE WB)
- Type: cell-based
- condition description: Hela cells stably overexpressing YFP-Parkin, 1 hour
parameter: pEC50
The value called pEC50 is obtained by taking minus log10 of the concentration in mol/L.

smiles data	pEC50
COC[C@@H]1C[C@@H](NC(=O)c2ncc(-c3cc(C#N)ccc3OC3CC3)o2)CN1C#N	8.52

Could you now look at the following compound, please?
Noted pEC50 for C[C@@H]1C[C@@H](NC(=O)c2ncc(-c3cc(C#N)ccc3OC3CC3)o2)CN1C#N , tested on Endogenous USP30 (Homo sapiens (Human), UniProt Q70CQ3): 8.70

###

As shown below, each of these compounds has a reported pIC50 value.
- system tested: UCHL1 (Homo sapiens (Human))
pIC50: −log10 of the molar value.

Past entries and their recorded results:
compound	system tested	pIC50
COc1cc(-c2cnc(NC(=O)[C@H]3CCN(C#N)C3)s2)ccc1C#N [C, reference compound]	UCHL1 (Homo sapiens (Human))	6.68
COC[C@@H]1C[C@@H](NC(=O)c2ncc(-c3cc(C#N)ccc3OC3CC3)o2)CN1C#N [Example 2]	UCHL1 (Homo sapiens (Human))	< 3.52

Could you now look at the following compound, please?
Noted pIC50 for N#Cc1ccc(-c2cnc(NC(=O)[C@H]3CCN(C#N)C3)s2)cc1OC(F)(F)F [B, reference compound] , tested on UCHL1 (Homo sapiens (Human)): 6.28
